# target.desc: human GIP-R (Homo sapiens, UniProt P48546)
# Construct: expressed in transfected cells; host or cells: Chinese Hamster Lung (CHL) fibroblast cells, stably transfected
# Sequence (P48546 22-466): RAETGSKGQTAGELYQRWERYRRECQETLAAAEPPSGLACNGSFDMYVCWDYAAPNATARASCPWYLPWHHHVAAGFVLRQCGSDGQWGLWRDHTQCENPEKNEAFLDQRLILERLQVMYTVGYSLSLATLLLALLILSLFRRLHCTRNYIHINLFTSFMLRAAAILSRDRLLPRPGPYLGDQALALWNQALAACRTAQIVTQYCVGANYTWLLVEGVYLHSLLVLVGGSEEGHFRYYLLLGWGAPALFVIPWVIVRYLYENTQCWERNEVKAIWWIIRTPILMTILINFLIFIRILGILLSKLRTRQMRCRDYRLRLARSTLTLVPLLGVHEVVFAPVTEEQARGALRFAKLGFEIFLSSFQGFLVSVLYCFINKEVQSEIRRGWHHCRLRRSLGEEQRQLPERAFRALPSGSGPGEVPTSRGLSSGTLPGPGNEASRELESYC
# assay.name: Cyclic AMP production in GIP-R transfected CHL cells
# Type: cell-based
# condition.set: in presence of GIP (10^-7 m)
Ends that are not written are not given here.
observable: inhibition of GIP-stimulated cAMP production

| substance | target.desc | obs.value |
| --- | --- | --- |
| YAPGTFISDYSIAMDKIHQQDFVNWLLAQKGKKNDWKHNITQ [(Pro^3)GIP] | human GIP-R (Homo sapiens, UniProt P48546) | significantly inhibited |
| YAFGTFISDYSIAMDKIHQQDFVNWLLAQKGKKNDWKHNITQ [(Phe^3)GIP] | human GIP-R (Homo sapiens, UniProt P48546) | significantly inhibited |
| YAKGTFISDYSIAMDKIHQQDFVNWLLAQKGKKNDWKHNITQ [(Lys^3)GIP] | human GIP-R (Homo sapiens, UniProt P48546) | significantly inhibited |
